# experiment description: solubility of CBD in water and other aqueous solvents with Captisol (SAE-CD) and/or added polymers, surfactants, pH
# Type: physicochemical
# run parameters: aqueous solvent, aqueous with cosolvent or surfactant or cyclodextrin, Captisol 20%, 0.5% Poloxamer 188
experimental endpoint: solubility (µg/mL)
Reply numerically in µg/mL, unit not repeated.

Reported solubility, compound `C=C(C)[C@@H]1CCC(C)=C[C@H]1c1c(O)cc(CCCCC)cc1O` : ____ 1410

* * *

# experiment description: solubility of CBD in water and other aqueous solvents with Captisol (SAE-CD) and/or added polymers, surfactants, pH
# Assay type: physicochemical
# run parameters: aqueous solvent, aqueous with cosolvent or surfactant or cyclodextrin, Captisol 20%, 1% Tween 80
experimental endpoint: solubility
Quote the value and follow it with the unit of measurement.

Give the measured solubility of C=C(C)[C@@H]1CCC(C)=C[C@H]1c1c(O)cc(CCCCC)cc1O [CBD, cannabidiol] . 2010 µg/mL
